Data provenance: patent US12583858B2

Here, each record is paired with measured pEC50 data.
# Study System: TDO2 (Homo sapiens, UniProt P48775)
# Construct: decreased levels of NFK in SW48 cells (high TDO expressing cells)
# Sequence (P48775 whole entry): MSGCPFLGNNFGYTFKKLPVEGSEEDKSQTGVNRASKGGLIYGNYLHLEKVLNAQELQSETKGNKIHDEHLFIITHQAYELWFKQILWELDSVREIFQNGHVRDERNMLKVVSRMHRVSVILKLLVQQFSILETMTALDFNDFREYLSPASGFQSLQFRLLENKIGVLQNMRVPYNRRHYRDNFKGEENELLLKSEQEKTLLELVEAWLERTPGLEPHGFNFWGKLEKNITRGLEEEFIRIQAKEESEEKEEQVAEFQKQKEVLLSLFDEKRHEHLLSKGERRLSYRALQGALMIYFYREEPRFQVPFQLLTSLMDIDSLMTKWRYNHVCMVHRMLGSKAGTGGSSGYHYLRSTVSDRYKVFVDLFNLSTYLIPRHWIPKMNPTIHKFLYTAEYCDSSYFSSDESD
# Assay Explanation: TDO2 cell assay (NFK GreenScreen, SW48 cells)
# Format: cell-based
# Condition Description: SW48 cells (high TDO expressing), 200 uM tryptophan, 24 hours; Table 3; read-out: TDO2 Cell Fluor EC50
pEC50: −log10 of the molar value.

Compound | pEC50
CS(=O)(=O)c1ccc2c(c1)OCC(C1c3ccccc3-c3cncn31)C2O (single isomer, unassigned) [Example 91c] | < 4.60

Query block: Short answer please: pEC50, TDO2 (Homo sapiens, UniProt P48775), entry NC(=O)C1([C@@H](O)[C@@H]2c3ccccc3-c3cncn32)CC1 [Example 165b]
Result block: < 4.60

Query block: Short answer please: pEC50, TDO2 (Homo sapiens, UniProt P48775), entry N#CCN1CC[C@H]([C@H]2c3ccccc3-c3cncn32)[C@@H](O)C1 [Example 27c]
Result block: < 4.60

Query block: Short answer please: pEC50, TDO2 (Homo sapiens, UniProt P48775), entry OC1c2cnccc2CCC1C1c2ccccc2-c2cncn21 (single isomer, unassigned) [Example 04b]
Result block: < 4.60

Query block: Short answer please: pEC50, TDO2 (Homo sapiens, UniProt P48775), entry CCS(=O)(=O)N1CCC(O)C(C2c3ccccc3-c3cncn32)C1 (single isomer, unassigned) [Example 15a]
Result block: < 4.60

Query block: Short answer please: pEC50, TDO2 (Homo sapiens, UniProt P48775), entry O[C@@H]1c2cccn2CC[C@@H]1[C@@H]1c2ccccc2-c2cncn21 [Example 136b]
Result block: < 4.60

Query block: Short answer please: pEC50, TDO2 (Homo sapiens, UniProt P48775), entry OC1(C2c3ccccc3-c3cncn32)CCCOC1 (single isomer, unassigned) [Example 144d]
Result block: < 4.60

Query block: Short answer please: pEC50, TDO2 (Homo sapiens, UniProt P48775), entry OC1CCCOCC1C1c2ccccc2-c2cncn21 (single isomer, unassigned) [Example 86e]
Result block: < 4.60

Query block: Short answer please: pEC50, TDO2 (Homo sapiens, UniProt P48775), entry OC1c2cnccc2CC1C1c2ccccc2-c2cncn21 (single isomer, unassigned) [Example 71c]
Result block: < 4.60

Query block: Short answer please: pEC50, TDO2 (Homo sapiens, UniProt P48775), entry CC(O)(c1ncc[nH]1)C1c2ccccc2-c2cncn21 (single isomer, unassigned) [Example 143a]
Result block: < 4.60

Query block: Short answer please: pEC50, TDO2 (Homo sapiens, UniProt P48775), entry Nc1ncc2c(n1)CCC(C1c3ccccc3-c3cncn31)C2O (single isomer, unassigned) [Example 111g]
Result block: < 4.60

Query block: Short answer please: pEC50, TDO2 (Homo sapiens, UniProt P48775), entry O[C@@H]1c2cccnc2CC[C@@H]1[C@@H]1c2ccccc2-c2cncn21 [Example 31a]
Result block: < 4.60
